# Read-out: growth arrest and DNA damage 45 (GADD45G), GADD45G (gene 10912)
# method.description: LTEA_HepaRG_GADD45G: Life Technologies and Expression Analysis (LTEA) Assay for growth arrest and DNA damage 45 (GADD45G) using HepaRG (AID 2283499)
# stated.conditions: mRNA level, 48 h; actives raise or lower the signal
Active and inactive are the calls of the source. Rule for the calls: active = hit-call score of the fitted dose curve at least 0.9, where 1 is the maximum; inactive = score below 0.9.
measurement.name: AC50

- CC(C)(C)c1ccc(CSc2cnn(C(C)(C)C)c(=O)c2Cl)cc1: 2.07 µM (active)
- CCOc1cc(Oc2ccc(C(F)(F)F)cc2Cl)ccc1[N+](=O)[O-]: inactive
- C#CCOS(=O)OC1CCCCC1Oc1ccc(C(C)(C)C)cc1 (configuration not stated): 12.7 µM (active)
- CNC(=S)S: inactive
- CC1COC(Cn2cncn2)(c2ccc(Oc3ccc(Cl)cc3)cc2Cl)O1 (configuration not stated): 12.2 µM (active)

Measured AC50, CCNc1nc(Cl)nc(NC(C)C)n1 : inactive

Measured AC50, CS/C(C)=N/OC(=O)N(C)SN(C)C(=O)O/N=C(\C)SC : inactive

Measured AC50, CN(C)C(=S)SSC(=S)N(C)C : inactive

Measured AC50, COP(N)(=O)SC (configuration not stated) : inactive

Measured AC50, COc1ccc(C(c2ccc(OC)cc2)C(Cl)(Cl)Cl)cc1 : 56.2 µM (active)

Measured AC50, CCCCNC(=O)OCC#CI : inactive

Measured AC50, COc1nc(NC(C)C)nc(NC(C)C)n1 : inactive

Measured AC50, CCOC(=O)CC(SP(=S)(OC)OC)C(=O)OCC (configuration not stated) : inactive

Measured AC50, CC1=C(C(=O)Nc2ccccc2)SCCO1 : 61.8 µM (active)

Measured AC50, COc1cnc(OC)n2nc(NS(=O)(=O)c3c(OCC(F)F)cccc3C(F)(F)F)nc12 : inactive

Measured AC50, CC(C)Oc1cc(-n2nc(C(C)(C)C)oc2=O)c(Cl)cc1Cl : 77.8 µM (active)

Measured AC50, COC(=O)C(C)Oc1ccc(Oc2ccc(Cl)cc2Cl)cc1 (configuration not stated) : inactive
